Experiment notes: In vitro inhibition of DHT (dihydrotestosterone) on proliferation of androgen-sensitive cancer Schionogi (SC-3) cells
pIC50: −log10 of the molar value.
Metric: pIC50

Solved cases below.
> print(dat)
                                   compound  metric  test.result
1  CC(C)N(C=O)[C@H]1CCC2C3CC[C@H]4N(C)C(=O)CC[C@]4(C)C3CC[C@@]21C (stereo partly drawn)   pIC50         6.79
2  CCCCCCCN(C=O)[C@H]1CCC2C3CC[C@H]4N(C)C(=O)CC[C@]4(C)C3CC[C@@]21C (stereo partly drawn)   pIC50         7.24
3  CCCCCN(C=O)[C@H]1CCC2C3CC[C@H]4N(C)C(=O)CC[C@]4(C)C3CC[C@@]21C (stereo partly drawn)   pIC50         7.02

P = CCC(CC)N(C=O)[C@H]1CCC2C3CC[C@H]4N(C)C(=O)CC[C@]4(C)C3CC[C@@]21C (stereo partly drawn)
Q = CC(C)CCN(C=O)[C@H]1CCC2C3CC[C@H]4N(C)C(=O)CC[C@]4(C)C3CC[C@@]21C (stereo partly drawn)
R = CC(C)CN(C=O)[C@H]1CCC2C3CC[C@H]4N(C)C(=O)CC[C@]4(C)C3CC[C@@]21C (stereo partly drawn)
S = CCCCN(C=O)[C@H]1CCC2C3CC[C@H]4N(C)C(=O)CC[C@]4(C)C3CC[C@@]21C (stereo partly drawn)
T = CCN(CC)C(=O)[C@H]1CCC2C3CC[C@H]4N(C)C(=O)CC[C@]4(C)C3CC[C@@]21C (stereo partly drawn)
Incoming: Ascending sort, pIC50. Your answer should be the labels, listed in the requested order.
Outgoing: R, T, S, P, Q
(R: 6.00, T: 6.33, S: 6.78, P: 7.05, Q: 7.34)

----------
Experiment notes: In vitro inhibition of DHT (dihydrotestosterone) on proliferation of androgen-sensitive cancer Schionogi (SC-3) cells
pIC50: −log10 of the molar value.
Metric: pIC50

> print(dat)
                                   compound  metric  test.result
1  CCCCCCN(C=O)[C@H]1CCC2C3CC[C@H]4N(C)C(=O)CC[C@]4(C)C3CC[C@@]21C (stereo not given in full)   pIC50         7.05

I = CN(C=O)[C@H]1CCC2C3CC[C@H]4N(C)C(=O)CC[C@]4(C)C3CC[C@@]21C (stereo not given in full)
II = CN1C(=O)CC[C@]2(C)C3CC[C@@]4(C)C(CC[C@@H]4N(C=O)CCC(C)(C)C)C3CC[C@@H]12 (stereo not given in full)
Incoming: Field: entry with larger pIC50 (options I / II ). Write down the label attached to your selection.
Outgoing: II
(II: 6.77, I: 5.83)

P = CCCN(C=O)[C@H]1CCC2C3CC[C@H]4N(C)C(=O)CC[C@]4(C)C3CC[C@@]21C (stereo not given in full)
Q = CCCCCCCCN(C=O)[C@H]1CCC2C3CC[C@H]4N(C)C(=O)CC[C@]4(C)C3CC[C@@]21C (stereo not given in full)
Incoming: Field: entry with larger pIC50 (options P / Q ). Write down the label attached to your selection.
Outgoing: Q
